Recorded growth inhibition, one value per entry.
assay: NCI Yeast Anticancer Drug Screen. Data for the bub3 strain (AID 167); details: S. cerevisiae bub3 mutant strain, at 50.0 µM, stronger effect = higher value
Compounds without any hit were thinned out: in the full panel of roughly 79,000, 15% have a hit.
MEASURED ATTRIBUTE: growth inhibition (%)

>>> print(df.to_string())
                                    molecule  data_value
 0                Cc1ccccc1NC(=O)/C=C\C(=O)O       -14.4
 1  CC1=NC(=O)C(C)(c2ccccc2)N1CCc1ccccc1 (stereo not drawn)       -10.6
 2  CCCCCCCCCCCCOc1ccc(Sc2ccc(OCCCCCCCCCCCC)cc2C)c(C)c1        6.35
 3  Cc1ccc(N=C2C(=Nc3ccc(C)cc3)N(c3ccc(C)cc3)C(=S)N2C(=O)c2ccccc2)cc1       -29.6
 4       Cc1ccc(C)c(NC(=O)OC/C=C/c2ccccc2)c1        26.7
 5  CCCCCCCCCCCCNC(C)C1=C(O)c2ccccc2C(=O)C1=O (stereo not drawn)          15
 6                 COc1ccccc1NC(=O)NC1CCCCC1         5.5
 7  O=NN(CCCl)C(=O)NC1CCC(CC2CCC(NC(=O)N(CCCl)N=O)CC2)CC1 (stereo not drawn)       -6.45
 8           N#CCc1c(-c2ccccn2)[nH]c2ccccc12       -11.2
 9  Cc1ccc(S(=O)(=O)N/N=C2\CCC3(C)C(=CCC4C3CCC3(C)C(C(C)CCCC(C)C)CCC43)C2(C)C)cc1 (stereo not drawn)       -7.95
10                      COC(=O)c1ccc(C)[nH]1         6.4
11  CCN1CCCC(SC(=O)C(O)(c2ccccc2)c2ccccc2)C1 (stereo not drawn)       -4.15
12  CN(C)Cc1cc(C(=O)/C=C/c2ccccc2Cl)cc(CN(C)C)c1O         3.9
13      COc1cc(C(SCc2ccccc2)SCc2ccccc2)ccc1O        17.4
14               CCc1cccc(Nc2ccccc2C(=O)O)c1       -2.05
15  O=C(CCCn1cnc([N+](=O)[O-])n1)NCCCn1ccnc1[N+](=O)[O-]       -34.8
16        Nc1ccc(S(=O)(=O)N/N=C/c2ccccc2)cc1         -34
17     [N-]=[N+]=CC(=O)CCN1C(=O)c2ccccc2C1=O        1.15
18  O=C(COCC(=O)N/N=C/c1ccc(O)cc1)N/N=C/c1ccc(O)cc1        18.1
19           COc1ccc2cc(C(=O)CCC(=O)O)ccc2c1       -38.5
20  C=C1c2nc3ccccc3n2C=C(c2ccc(Cl)cc2)N1c1ccc(OC)cc1         7.7
21  CNc1nc(N)nc(N)c1N1CCN(c2ccc(C(=O)O)cc2)CC1        17.2
22  O=C(CN1C(=O)NC(c2ccccc2)(c2ccccc2)C1=O)NCCN1CCOCC1        -0.1

====

experiment: NCI Yeast Anticancer Drug Screen. Data for the cln2 rad14 strain (AID 165);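 also: 0% = growth equal to vehicle treated cultures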; conditions: S. cerevisiae cln2 rad14 strain, at 50.0 µM, stronger effect = higher value
This is part of a sample that, as a whole, favours compounds with a hit. Of some 79,000 tested, about 15% had one in any assay.
MEASURED ATTRIBUTE: growth inhibition (%)

>>> print(df.to_string())
                                    molecule  measured_attribute  data_value
 0    O=C(C=c1sc(=CC(=O)c2ccccc2)s1)c1ccccc1   growth inhibition       -41.3
 1                Cc1cc(S(=O)(=O)O)cc(Cl)c1N   growth inhibition        -0.5
 2  COC(=O)CC1(C(=O)OC)Nc2ccccc2C(=O)O1 (stereo not given)   growth inhibition       -11.1
 3  CC(C)=CC1C(C(=O)Oc2c(Cl)c(Cl)c(Cl)c(Cl)c2Cl)C1(C)C (stereo not given)   growth inhibition        12.2
 4  CC(=O)OC12C3C4C1C1C2C3C41OC(C)=O (stereo not given)   growth inhibition         0.9
 5                  O=[N+]([O-])c1nccn1COCCI   growth inhibition         3.3
 6  COc1ccc2c(c1OC)CN1CCc3cc4c(cc3C1=C2)OCO4   growth inhibition        2.35
 7  C=C1CC2(CCC3C4CC=C5CC(O)CCC5(C)C4CCC32C)OC1=O (stereo not given)   growth inhibition        46.3
 8  CC(=O)N(CN1C(=O)CCC1C(=O)O)c1ccccc1 (stereo not given)   growth inhibition        1.55
 9  Cc1cc(NCCN(C(C)C)C(C)C)nc(Nc2nc3cc(Cl)c(Cl)cc3[nH]2)n1   growth inhibition        11.7
10                O=C(O)c1cc(O)c(C(=O)O)cc1O   growth inhibition       -15.2
11                     O=C(O)Cc1cc(Cl)ccc1Cl   growth inhibition       -2.55
12                       C=CCc1ccc(C)c(C)c1O   growth inhibition        19.1
13  COc1ccc(CC2COC(=O)[C@@H]2Cc2ccc(O)cc2)cc1OC (stereo not given in full)   growth inhibition       -2.85
14                      CCOC(OCC)C(C)(C)OC=O   growth inhibition        24.2
15  CCCCCCCSCC1OC(n2cnc3c(N)ncnc32)C(O)C1O (stereo not given)   growth inhibition         5.5
16  CCOC(=O)NC(=O)c1cn(C2CCCCC2)c(=O)[nH]c1=O   growth inhibition        21.9
17  COC(=O)C1CCCN1C(=O)C(C)=O (stereo not given)   growth inhibition       -40.5
18  COc1ccc2c(c1)CCCN1CCc3cc(OC)c(OC)cc3C21 (stereo not given)   growth inhibition       -8.85
19  CCCCCCCC[C@]1(O)C[C@H]2[C@@H]3CCc4cc(OC)ccc4[C@H]3CC[C@]2(C)[C@H]1O   growth inhibition         7.1
20                COC(=O)c1cc(OC)c(O)c(OC)c1   growth inhibition       -12.3
21  CN1c2ccccc2N(C(=O)c2ccccc2)C(CC(=O)O)c2cccn21 (stereo not given)   growth inhibition        23.8
22  COc1ccc(C2=NNC(=O)OC2c2ccccc2)cc1 (stereo not given)   growth inhibition       -29.6
23  CC1(C)C2CCC1C(=O)C(C=O)C2 (stereo not given)   growth inhibition        32.5
24                    S=C(S)OC1CCCCC1.[Zn+2]   growth inhibition       -50.9
25  CC(C)(C(=Nc1ccc([N+](=O)[O-])cc1)N1CCOCC1)c1ccccc1   growth inhibition        34.6
26  C/C(=N\N=C(N)N)c1ccc(NC(=S)Nc2ccccc2)cc1   growth inhibition       -19.9
27  CCOc1ccccc1NC(=O)C(=O)C(c1ccccc1)S(=O)(=O)Cc1ccccc1 (stereo not given)   growth inhibition        5.45
28        CC1=C(N2CCCCC2)S(=O)(=O)c2ccccc2C1   growth inhibition       -19.6
29    O=C(Cc1ccccc1)N(C(=O)c1ccccc1)c1ccccc1   growth inhibition         9.1
30                         NC(=O)c1ccc(I)cc1   growth inhibition       -30.1
31                       O=C(O)Cc1ccc(Br)cc1   growth inhibition        10.8
32  CCOc1ccc(C2=NN(CC)C(=O)C(C3C(=O)N(c4ccccc4)N=C3C)C2)cc1 (stereo not given)   growth inhibition       -30.9
33                 CSc1nc2nc[nH]c2c(=O)[nH]1   growth inhibition       -14.2
34                          CSc1n[nH]c(SC)n1   growth inhibition        4.65
35               O=c1[nH]cnc2c1cnn2-c1ccccc1   growth inhibition        3.85
36                       CNc1c(C)cc(C#N)cc1C   growth inhibition         0.2
37  C=CC1=C(C)C2=NC1=CC1=NC(=CC3=C(C)C4=C(O)C(C(=O)OC)C(=C5NC(=C2)C(C)C5CCC(=O)OC)C4=N3)C(CC)=C1C (stereo not given)   growth inhibition        7.95
38               Cc1cc(O)c2c(c1)C(=O)C=CC2=O   growth inhibition        4.15
39                     C=CCCCCCCCCCCCCCCCCCC   growth inhibition         5.9
40                     CC(C)(C)C1=CC(=O)CCC1   growth inhibition        -8.1
41                      O=C(O)C1C(CCl)=C1CCl   growth inhibition       -11.3
42  C=C1CCC2C(C)(CO)C(O)CCC2(C)C1CCC1=CCOC1=O (stereo not given)   growth inhibition        3.35
43  CCOC(=O)NC(=O)c1cn(CC(=O)NCC(=O)NCC(=O)N2CCN(CCn3c(C)nc(C(N)=O)c3N)CC2)c(=O)[nH]c1=O   growth inhibition       -18.8
44  Clc1ccc(N2C(c3ccccc3)=N[C@@H](N3CCOCC3)[C@@H]2N2CCOCC2)cc1   growth inhibition       -30.9
45               CNCCCC1c2ccccc2C=Cc2ccccc21   growth inhibition        -1.7
46                 CC1=CC(=O)c2ccc(F)cc2C1=O   growth inhibition        -2.9
47                        CCOC(=O)CCC1CCCCC1   growth inhibition        0.65
48  Cc1cc(C)c(C(CC(=O)O)C(CC(=O)O)c2c(C)cc(C)cc2C)c(C)c1 (stereo not given)   growth inhibition       -21.4
49                 COc1ccc(C(=O)OC2CCCC2)cc1   growth inhibition        -9.5

Just for reference, PubChem BioAssay (NCI) is where these values come from.
